Test system: Bacillus subtilis
Assay: cleaved RNA product abundance (RNA/gDNA barcode ratio) relative to median wild-type variant (ratio to wild type); higher = more accumulation of the downstream cleavage product
Settings: experiment (reporter, strain, medium): exp 4a: truncated aprE reporter, strain BJT201 with 2% xylose (RNase J1 expressed); cleavage site: cggR-gapA (positions -7 to +36 mutated)
Below, each of the sequences is paired with its reported cleaved RNA product abundance value.

Sequence Entry | cleaved RNA product abundance
ACAGACGAAGGAGCCGCAAAGAAGTTATTAAGGGTTGAATAATCCCTTAATATAAATATCTCTCACTTATTTAAA | 0.608
ACAGACGAAGGAGCCGCAAAGAAGCTATAAAGGGATGAATAATCCCTCAATATAAATATCTCTCACTTATTTAAA | 0.357
ACAGACGAAGGAGCCGCAAAGAAGTTATTAAGGGATGTATAATCCCTCAATATAAATATCTCTCACTTATTTAAA | 0.978
ACAGACGAAGGAGCCGCAAATAAGTTATTAAGGGATGAATACTCCCTCAATATAAATATCTCTCACTTATTTAAA | 0.538
ACAGACGAAGGAGCCGCAAAGAAGTTATTAATGGATGAATAATCCCTCAATAAAAATATCTCTCACTTATTTAAA | 0.108
ACAGACGAAGGAGCCGCAAAGAAGTTATTAAGAGATGAATAATCTCTCAATATAAATATCTCTCACTTATTTAAA | 0.924
ACAGACGAAGGAGCCGCAAAGAAGTTATTAAGCGATGAATAATCCCTCAATATAAATAACTCTCACTTATTTAAA | 0.102

###

Below, each of the sequences is paired with its reported cleaved RNA product abundance value.
System: Bacillus subtilis
Experiment: cleaved RNA product abundance (RNA/gDNA barcode ratio) relative to median wild-type variant (ratio to wild type); higher = more accumulation of the downstream cleavage product
Settings: experiment (reporter, strain, medium): exp 4a: truncated aprE reporter, strain BJT201 with 2% xylose (RNase J1 expressed); cleavage site: cggR-gapA (positions -7 to +36 mutated)

Sequence Entry | cleaved RNA product abundance
ACAGACGAAGGAGCCGCAAAGAAGATATAAAGGGATGAATAATCCCTCAATATAAATATCTCTCACTTATTTAAA | 0.514
ACAGACGAAGGAGCCGCACAGAAGTTATTAAGGTATGAATAATCCCTCAATATAAATATCTCTCACTTATTTAAA | 0.198
ACAGACGAAGGAGCCGCAAATAAGTTATTAAGGGATGAATAATCCCTCAAAATAAATATCTCTCACTTATTTAAA | 0.322
ACAGACGAAGGAGCCGCAAAGAAGTTATTAAGGGATGAATAATCCCTCAATATAAAGATCTCTCACTTATTTAAA | 0.627
ACAGACGAAGGAGCCGCGAAGAAGTTATTAAGGGATGAATAATCGCTCAATATAAATATCTCTCACTTATTTAAA | 0.134
ACAGACGAAGGAGCCGCACAGAAGTTATTAAGGGAAGAATAATCCCTCAATATAAATATCTCTCACTTATTTAAA | 0.573
ACAGACGAAGGAGCCGCAAAAAAGATATTAAGGGATGAATAATCCCTCAATATAAATATCTCTCACTTATTTAAA | 0.913
